- tested_system: SARS-CoV-2 Papain-Like Protease (PLpro) (Severe acute respiratory syndrome coronavirus 2 (2019-nCoV) (SARS-CoV-2))
- protocol_text: biochemical
- condition_details: SARS-CoV-2 PLpro enzymatic fluorescence assay; read-out: PLpro IC50
pIC50: −log10 of the molar value.
property_name: pIC50

| compound | value_reported |
| --- | --- |
| Cc1ccc(OCC2CCN2C)cc1C(=O)NC1(c2cc(C#N)cc3ccccc23)CC1 (centres unmarked) | > 7.00 |
| CNCCOc1ccc(C)c(C(=O)NC2(c3cccc4cc(F)ccc34)CC2)c1 | > 7.00 |
| Cc1cc2cn(C3CNC3)nc2cc1C(=O)NC1(c2cccc3ccccc23)CC1 | 6.00 to 7.00 |
| Cc1ccc(Nc2ccc[nH]c2=O)cc1C(=O)N[C@H](C)c1cccc2ccccc12 | 5.30 to 6.00 |
| Cc1ccc(OC2CCCN(C)C2)cc1C(=O)NC1(c2cccc3ccccc23)CC1 (centres unmarked) | 6.00 to 7.00 |
| Cc1ccc(OCC2COCCN2)cc1C(=O)NC1(c2cccc3ccccc23)CC1 (centres unmarked) | > 7.00 |
| CC(c1cccc2ccccc12)N1CCC(C(=O)NCc2cccc(F)c2)C1 (centres unmarked) | < 5.30 |
| Cc1cc2c(cc1C(=O)NC1(c3cccc4ccccc34)CC1)N(C)CC2 | 6.00 to 7.00 |
| CCCC1COc2cc(C(=O)NC3(c4cccc5ccccc45)CC3)c(C)cc21 (centres unmarked) | 6.00 to 7.00 |
| CC[S+]([O-])c1cc(C2(NC(=O)c3cc(OCCN(C)C)ccc3C)CC2)c2ccccc2c1 (centres unmarked) | > 7.00 |
| Cc1ccc(OC[C@H]2C[C@@H](F)CN2C)cc1C(=O)NC1(c2cccc3ccccc23)CC1 | > 7.00 |
| Cc1ccc(OC[C@@H]2CCN2C)cc1C(=O)NC1(c2cc(Cl)cc3ncccc23)CC1 | > 7.00 |
| Cc1ccc(OCCN(C)C)cc1C(=O)NC1(c2cccc(C3CCCC3)c2)CC1 | < 5.30 |
| Cc1cc2c(cc1C(=O)NC1(c3cccc4ccccc34)CC1)NCC2(C)C | 6.00 to 7.00 |
| Cc1ccc(OCC2CCN2C)cc1C(=O)NC1(c2cc(-c3cccs3)cc3ccccc23)CC1 (centres unmarked) | > 7.00 |
| C=Cc1cc(C2(NC(=O)c3cc(OCC45CCCN4CCC5)ccc3C)CC2)c2cccnc2c1 | > 7.00 |
| Cc1cc2cnn(C3CNC3)c2cc1C(=O)NC1(c2cccc3ccccc23)CC1 | > 7.00 |

* * *

Reported IC50 values for the following molecules.
- tested_system: SARS-CoV-2 Papain-Like Protease (PLpro) (Severe acute respiratory syndrome coronavirus 2 (2019-nCoV) (SARS-CoV-2), UniProt P0DTD1)
- protocol_text: biochemical
- condition_details: PLpro enzymatic fluorescence assay; class symbols; read-out: PLpro IC50

| molecule | IC50 |
| --- | --- |
| COc1cc(C2(NC(=O)c3cc(OC[C@@H]4CC[C@@H]5CNCCN54)ccc3C)CC2)c2cccnc2c1 [Compound 789] | < 100 nM |
| COc1cc(C2(NC(=O)c3cc(OCCN(C)CCF)ccc3C)CC2)c2cccnc2c1 [Compound 571] | < 100 nM |
| CC#Cc1cc(C2(NC(=O)c3cc(OC[C@@H]4CCN4)ccc3C)CC2)c2cccnc2c1 [Compound 696] | < 100 nM |
| COc1cc(C2(NC(=O)c3cc(OC[C@@H]4CCN4C)ccc3F)CC2)c2ccc(C)nc2c1 [Compound 791] | 100 to 1000 nM |

All values here come from patent US20250025443A1.
